- Tested on: velvetleaf
- TEST NAME: Test B pre/postemergence velvetleaf
- Format: in vivo, Abutilon theophrasti
- CONDITION SUMMARY: Preemergence, Rate 62 g/ha; scale of 0 to 10 where 0 is no effect and 10 is complete control
OBSERVATION TYPE: Velvetleaf plant response rating
Give a plain numeric answer without units written out.

QUERY: Which value of Velvetleaf plant response rating has been reported for `CC(C)N(C(=O)n1oc(=O)n(-c2cccnc2)c1=O)c1ccc(F)cc1` in the records?
RESULT: 0

QUERY: Which value of Velvetleaf plant response rating has been reported for `CCCCCn1c(=O)on(C(=O)N(c2ccc(F)cc2)C(C)C)c1=O` in the records?
RESULT: 0

QUERY: Which value of Velvetleaf plant response rating has been reported for `CC(C)N(C(=O)n1oc(=O)n(CC(=O)C2CC2)c1=O)c1ccc(Cl)cc1` in the records?
RESULT: 0

QUERY: Which value of Velvetleaf plant response rating has been reported for CCOC(=O)C(C)N(C(=O)n1oc(=O)n(CC)c1=O)c1ccc(F)cc1 (stereo not shown) in the records?
RESULT: 0

QUERY: Which value of Velvetleaf plant response rating has been reported for `CC(C)N(C(=O)n1oc(=O)n(C(C)C)c1=O)c1ccc(Br)cc1` in the records?
RESULT: 0

QUERY: Which value of Velvetleaf plant response rating has been reported for `CCn1ncc(Cn2c(=O)on(C(=O)N(c3ccc(F)cc3)C(C)C)c2=O)c1Cl` in the records?
RESULT: 0

QUERY: Which value of Velvetleaf plant response rating has been reported for `CC(C)N(C(=O)n1oc(=O)n(-c2ccsc2)c1=O)c1ccc(F)cc1` in the records?
RESULT: 0

QUERY: Which value of Velvetleaf plant response rating has been reported for `CC(C)N(C(=O)n1oc(=O)n(C2CC2)c1=O)c1ccc(F)cc1` in the records?
RESULT: 6

QUERY: Which value of Velvetleaf plant response rating has been reported for `Cc1ccccc1-n1c(=O)on(C(=O)N(c2ccc(F)cc2)C2CCC2)c1=O` in the records?
RESULT: 0

QUERY: Which value of Velvetleaf plant response rating has been reported for `CC(C)N(C(=O)n1oc(=O)n([C@@H](C)c2ccccc2)c1=O)c1ccc(Cl)cc1` in the records?
RESULT: 0

QUERY: Which value of Velvetleaf plant response rating has been reported for `CCCCn1c(=O)on(C(=O)N(c2ccc(F)cc2F)C(C)C)c1=O` in the records?
RESULT: 0

QUERY: Which value of Velvetleaf plant response rating has been reported for `CC(C)N(C(=O)n1oc(=O)n(CC(Cl)Cl)c1=O)c1ccc(F)cc1F` in the records?
RESULT: 0

QUERY: Which value of Velvetleaf plant response rating has been reported for `CC(C)N(C(=O)n1oc(=O)n(Cc2ccco2)c1=O)c1ccc(Cl)cc1` in the records?
RESULT: 0

QUERY: Which value of Velvetleaf plant response rating has been reported for `CC(C)N(Cc1ccccc1)C(=O)n1oc(=O)n(C(C)C)c1=O` in the records?
RESULT: 0

QUERY: Which value of Velvetleaf plant response rating has been reported for `C=C(Cn1c(=O)on(C(=O)N(c2ccc(F)cc2)C(C)C)c1=O)C(=O)OC` in the records?
RESULT: 0

QUERY: Which value of Velvetleaf plant response rating has been reported for `CC(C)N(C(=O)n1oc(=O)n([C@@H](C)c2ccccc2)c1=O)c1ccccc1` in the records?
RESULT: 0

QUERY: Which value of Velvetleaf plant response rating has been reported for `CC(C)N(C(=O)n1oc(=O)n(CCC(=O)N(C)C)c1=O)c1ccc(F)cc1F` in the records?
RESULT: 2

QUERY: Which value of Velvetleaf plant response rating has been reported for `CC(C)N(C(=O)n1oc(=O)n(CC=Cc2ccccc2)c1=O)c1ccc(F)cc1` in the records?
RESULT: 0

QUERY: Which value of Velvetleaf plant response rating has been reported for `CON=C(Cn1c(=O)on(C(=O)N(c2ccc(F)cc2)C(C)C)c1=O)C(F)(F)F` in the records?
RESULT: 0
